Values compiled from paper PMC6440482.

- tested_on: UniProt Q7RTT9
- Sequence (Q7RTT9 whole entry): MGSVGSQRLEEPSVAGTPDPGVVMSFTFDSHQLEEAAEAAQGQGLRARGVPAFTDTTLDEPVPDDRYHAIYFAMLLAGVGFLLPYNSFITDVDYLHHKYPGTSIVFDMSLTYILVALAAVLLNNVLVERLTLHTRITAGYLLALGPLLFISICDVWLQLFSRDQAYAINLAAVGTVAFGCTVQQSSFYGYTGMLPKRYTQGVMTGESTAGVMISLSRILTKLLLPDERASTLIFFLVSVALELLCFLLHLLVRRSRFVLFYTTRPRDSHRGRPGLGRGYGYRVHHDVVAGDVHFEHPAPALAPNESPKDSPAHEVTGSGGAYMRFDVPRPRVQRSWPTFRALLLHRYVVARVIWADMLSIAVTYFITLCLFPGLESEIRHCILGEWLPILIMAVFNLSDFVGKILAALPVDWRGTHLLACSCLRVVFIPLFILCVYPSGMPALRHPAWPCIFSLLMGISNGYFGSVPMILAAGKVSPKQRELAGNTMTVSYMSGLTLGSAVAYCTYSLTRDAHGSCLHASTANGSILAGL
- protocol_text: [3H]MPP+ uptake competition in stable hPMAT-HEK cells
- Assay type: cell-based
- protocol_conditions: read-out: hPMAT-HEK IC50; 10 nM [3H]MPP+ uptake, 10 min room temperature
quantity: pIC50
Units for pIC50: none; it is -log10 of a concentration expressed in mol/L.

What value of measured pIC50 is listed for `C[n+]1ccc(-c2ccccc2)cc1` ?
2.99

What would you report for `CCN1C(=Cc2ccc3ccccc3[n+]2CC)C=Cc2ccccc21` ?
5.96

* * *

- tested_on: hOCT2 (Homo sapiens, UniProt O15244)
- Sequence (O15244 whole entry): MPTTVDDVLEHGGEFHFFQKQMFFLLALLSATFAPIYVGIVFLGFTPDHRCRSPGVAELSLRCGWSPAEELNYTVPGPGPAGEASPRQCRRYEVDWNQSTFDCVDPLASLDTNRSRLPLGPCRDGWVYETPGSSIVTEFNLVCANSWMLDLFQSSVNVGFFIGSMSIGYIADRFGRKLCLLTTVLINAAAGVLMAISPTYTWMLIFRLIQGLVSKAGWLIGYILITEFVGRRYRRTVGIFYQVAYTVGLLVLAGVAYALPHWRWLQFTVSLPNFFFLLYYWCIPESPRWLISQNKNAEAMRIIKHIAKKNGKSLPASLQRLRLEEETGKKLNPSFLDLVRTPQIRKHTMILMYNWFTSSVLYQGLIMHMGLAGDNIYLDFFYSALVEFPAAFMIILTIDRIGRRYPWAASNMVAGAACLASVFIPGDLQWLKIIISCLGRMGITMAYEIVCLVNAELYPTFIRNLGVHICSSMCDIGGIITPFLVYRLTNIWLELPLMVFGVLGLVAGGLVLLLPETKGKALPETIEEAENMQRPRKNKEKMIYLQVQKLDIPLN
- protocol_text: [3H]MPP+ uptake competition in stable hOCT2-HEK cells
- Format: cell-based
- protocol_conditions: hOCT2-HEK IC50, 10 nM [3H]MPP+ uptake, 10 min room temperature
quantity: pIC50
Units for pIC50: none; it is -log10 of a concentration expressed in mol/L.

What value of measured pIC50 is listed for `C[C@]12C[C@H](O)[C@H]3[C@@H](CCC4=CC(=O)CC[C@@]43C)[C@@H]1CC[C@@H]2C(=O)CO` ?
4.10
